// provenance: ChEMBL document CHEMBL1123096

Measured potency relative to idazoxan, listed per entry for reference.
- assayed system: Adrenergic receptor alpha-2 (Rattus norvegicus) (UniProt P22086+P19328+P22909)
- protocol: Presynaptic antagonist activity towards alpha-2 adrenergic receptor.
- Assay type: functional
Give your answer as a number; write no unit.

## Input Quick one: potency relative to idazoxan for CCCCCOC1(C2=NCCN2)COc2ccccc2O1 (centres undefined) ?
## Output 0.72

Proceeding to the next molecule to report its potency relative to idazoxan.
## Input Quick one: potency relative to idazoxan for C=CC1(C2=NCCN2)COc2ccccc2O1 (centres undefined) ?
## Output 1

###

- assayed system: Adrenergic receptor alpha-2 (Rattus norvegicus) (UniProt P22086+P19328+P22909)
- protocol: Presynaptic antagonist activity towards alpha-2 adrenergic receptor.
- Type: functional
Output condition met for potency relative to idazoxan not less than 0.2; output condition not met otherwise.

Before answering, review these 2 worked examples.
## Input Confirm if potency relative to idazoxan reported for the molecule c1ccc2c(c1)OCC(OC1CCCC1)(C1=NCCN1)O2 (configuration not stated) is 0.2 or above.
## Output condition not met

## Input Confirm if potency relative to idazoxan reported for the molecule C=CCOC1(C2=NCCN2)COc2ccccc2O1 (configuration not stated) is 0.2 or above.
## Output condition met

Others:
## Input Confirm if potency relative to idazoxan reported for the molecule OCCCCOC1(C2=NCCN2)COc2ccccc2O1 (configuration not stated) is 0.2 or above.
## Output condition met

## Input Confirm if potency relative to idazoxan reported for the molecule CC(C)C1(C2=NCCN2)COc2ccccc2O1 (configuration not stated) is 0.2 or above.
## Output condition not met

## Input Confirm if potency relative to idazoxan reported for the molecule COC1(C2=NC(C)CN2)COc2ccccc2O1 (configuration not stated) is 0.2 or above.
## Output condition not met

## Input Confirm if potency relative to idazoxan reported for the molecule C=C(C)C1(C2=NCCN2)COc2ccccc2O1.Cl (configuration not stated) is 0.2 or above.
## Output condition met

## Input Confirm if potency relative to idazoxan reported for the molecule OCCOC1(C2=NCCN2)COc2ccccc2O1 (configuration not stated) is 0.2 or above.
## Output condition met

## Input Confirm if potency relative to idazoxan reported for the molecule CC1Oc2ccccc2OC1C1=NCCN1 (configuration not stated) is 0.2 or above.
## Output condition not met

## Input Confirm if potency relative to idazoxan reported for the molecule CCCCOC1(C2=NCCN2)COc2ccccc2O1 (configuration not stated) is 0.2 or above.
## Output condition met

## Input Confirm if potency relative to idazoxan reported for the molecule C1=C(C2(C3=NCCN3)COc3ccccc3O2)CC1.Cl (configuration not stated) is 0.2 or above.
## Output condition met

## Input Confirm if potency relative to idazoxan reported for the molecule C1=C(C2(C3=NCCN3)COc3ccccc3O2)CCCC1 (configuration not stated) is 0.2 or above.
## Output condition not met
